Hello, the source for this data is patent US9079870B2, in case you need it.

- assay-method-text: Cysteine-activated sulfur dioxide release, ion chromatography analysis of sulfite
- run-parameters: 30 min after treatment of compound (100 1M) with 10 equiv of cysteine in pH 7.4 phosphate buffer
assay-endpoint: SO2 yield, 30 min (µM)
Return type: number; implicit unit µM.

# count of solved cases: 4
{"compound": "COc1ccc(NS(=O)(=O)c2ccc([N+](=O)[O-])cc2[N+](=O)[O-])cc1 [Compound 7]", "SO2 yield, 30 min, µM": 80}
{"compound": "O=[N+]([O-])c1ccc(S(=O)(=O)Nc2ccc(F)cc2)c([N+](=O)[O-])c1 [Compound 10]", "SO2 yield, 30 min, µM": 55}
{"compound": "O=[N+]([O-])c1ccc(S(=O)(=O)N(Cc2ccccc2)c2ccccc2)c([N+](=O)[O-])c1 [Compound 17]", "SO2 yield, 30 min, µM": 94}
{"compound": "O=[N+]([O-])c1ccc(S(=O)(=O)Nc2ccccc2)c([N+](=O)[O-])c1 [Compound 6, N-phenyl, 2,4-dinitrophenylsulfonamide]", "SO2 yield, 30 min, µM": 55}

Shift focus to the following entry.
IN: Can you look up the measured SO2 yield, 30 min of COc1ccccc1NS(=O)(=O)c1ccc([N+](=O)[O-])cc1[N+](=O)[O-] [Compound 8] for me?
OUT: 86

---

- assay-method-text: Cysteine-activated sulfur dioxide release, ion chromatography analysis of sulfite
- run-parameters: Table 3; 30 min after treatment of compound (100 μM) with 10 equiv of cysteine in pH 7.4 phosphate buffer
assay-endpoint: SO2 yield, 30 min (µM)
Return type: number; implicit unit µM.

# count of solved cases: 2
{"compound": "CN(Cc1ccccc1)S(=O)(=O)c1ccc([N+](=O)[O-])cc1[N+](=O)[O-]", "units": "µM", "SO2 yield, 30 min": 100}
{"compound": "COC(=O)C1CCCN1S(=O)(=O)c1ccc([N+](=O)[O-])cc1[N+](=O)[O-] (stereo not drawn)", "units": "µM", "SO2 yield, 30 min": 83}

Shift focus to the following entry.
IN: Can you look up the measured SO2 yield, 30 min of O=[N+]([O-])c1ccc(S(=O)(=O)Nc2ccccc2)c([N+](=O)[O-])c1 [Compound 6, N-phenyl, 2,4-dinitrophenylsulfonamide] for me?
OUT: 55

---

Items are presented alongside their recorded MIC.
- System: S. aureus ATCC 29213
- assay-method-text: Antibacterial activity (MIC) against S. aureus
- Type: cell-based
- run-parameters: Staphylococcus aureus, ATCC29213; read-out: MIC (μg/mL) S. aureus ATCC 29213
Return type: number; implicit unit µg/mL.

# count of solved cases: 2
{"compound": "O=[N+]([O-])c1ccc(S(=O)(=O)Nc2ccc(F)cc2)c([N+](=O)[O-])c1 [Compound 10]", "val": 16}
{"compound": "COc1ccccc1NS(=O)(=O)c1ccc([N+](=O)[O-])cc1[N+](=O)[O-] [Compound 8]", "val": 8}

IN: Can you look up the measured MIC of CN(Cc1ccccc1)S(=O)(=O)c1ccc([N+](=O)[O-])cc1[N+](=O)[O-] [Compound 15] for me?
OUT: 8

---

- assay-method-text: Cysteine-activated sulfur dioxide release, ion chromatography analysis of sulfite
- run-parameters: 30 min after commencement of the reaction with thiol; per mole of compound
Items are presented alongside their recorded % SO2 (30 min).
Return type: number; implicit unit %.

# count of solved cases: 2
{"chem-smiles": "COc1ccc(N(CCCN(Cc2ccccc2)S(=O)(=O)c2ccc([N+](=O)[O-])cc2[N+](=O)[O-])S(=O)(=O)c2ccc([N+](=O)[O-])cc2[N+](=O)[O-])cc1", "units": "%", "% SO2 (30 min)": 183}
{"chem-smiles": "O=[N+]([O-])c1cccc(S(=O)(=O)N(CCCN(Cc2ccccc2)S(=O)(=O)c2ccc([N+](=O)[O-])cc2[N+](=O)[O-])Cc2ccccc2)c1", "units": "%", "% SO2 (30 min)": 99}

IN: Can you look up the measured % SO2 (30 min) of O=[N+]([O-])c1ccc(S(=O)(=O)N(CCCN(Cc2ccccc2)S(=O)(=O)c2ccccc2[N+](=O)[O-])Cc2ccccc2)c([N+](=O)[O-])c1 for me?
OUT: 88

IN: Cool, now O=[N+]([O-])c1ccc(S(=O)(=O)N(CCCN(Cc2ccccc2)S(=O)(=O)c2ccc([N+](=O)[O-])cc2[N+](=O)[O-])Cc2ccccc2)c([N+](=O)[O-])c1
OUT: 152

---

- assay-method-text: Cysteine-activated sulfur dioxide release, ion chromatography analysis of sulfite
- run-parameters: 30 min after treatment of compound (100 1M) with 10 equiv of cysteine in pH 7.4 phosphate buffer
Items are presented alongside their recorded SO2 yield, 30 min.
Return type: number; implicit unit µM.

# count of solved cases: 3
{"molecule": "C[C@@H](NS(=O)(=O)c1ccc([N+](=O)[O-])cc1[N+](=O)[O-])c1ccccc1 [Compound 13]", "SO2 yield, 30 min, µM": 94}
{"molecule": "O=[N+]([O-])c1ccc(S(=O)(=O)Nc2cccc(F)c2)c([N+](=O)[O-])c1 [Compound 9]", "SO2 yield, 30 min, µM": 24}
{"molecule": "COc1ccc(CNS(=O)(=O)c2ccc([N+](=O)[O-])cc2[N+](=O)[O-])cc1 [Compound 2]", "SO2 yield, 30 min, µM": 84}

Shift focus to the following entry.
IN: Can you look up the measured SO2 yield, 30 min of O=[N+]([O-])c1ccc(S(=O)(=O)NCc2ccc(C(F)(F)F)cc2)c([N+](=O)[O-])c1 [Compound 4] for me?
OUT: 75

---

- run-parameters: buffer, 100 µM, pH 7.4
assay-endpoint: t1/2 (min) of SO2 generation

# count of solved cases: 2
{"compound": "O=[N+]([O-])c1ccc(S(=O)(=O)Nc2ccccc2)c([N+](=O)[O-])c1 [Compound 6, N-phenyl, 2,4-dinitrophenylsulfonamide]", "t1/2 (min) of SO2 generation": "25 min"}
{"compound": "COc1ccc(NS(=O)(=O)c2ccc([N+](=O)[O-])cc2[N+](=O)[O-])cc1", "t1/2 (min) of SO2 generation": "12 min"}

IN: Can you look up the measured t1/2 (min) of SO2 generation of CN(Cc1ccccc1)S(=O)(=O)c1ccc([N+](=O)[O-])cc1[N+](=O)[O-] for me?
OUT: ~4 g·min

IN: Cool, now O=[N+]([O-])c1ccc(S(=O)(=O)NCc2ccccc2)c([N+](=O)[O-])c1 [Compound 1, N-benzyl-2,4-dinitrophenylsulfonamide]
OUT: ~2 g·min

---

- assay-method-text: Cysteine-activated sulfur dioxide release, ion chromatography analysis of sulfite
- run-parameters: 5 min after treatment of compound (100 1M) with 10 equiv of cysteine in pH 7.4 phosphate buffer
assay-endpoint: SO2 yield, 5 min (µM)
Return type: number; implicit unit µM.

# count of solved cases: 6
{"compound": "N#Cc1ccc(NS(=O)(=O)c2ccc([N+](=O)[O-])cc2[N+](=O)[O-])cc1", "SO2 yield, 5 min, µM": 6}
{"compound": "CCCN(Cc1ccccc1)S(=O)(=O)c1ccc([N+](=O)[O-])cc1[N+](=O)[O-]", "SO2 yield, 5 min, µM": 68}
{"compound": "O=[N+]([O-])c1ccc(S(=O)(=O)Nc2ccccc2)c([N+](=O)[O-])c1 [Compound 6, N-phenyl, 2,4-dinitrophenylsulfonamide]", "SO2 yield, 5 min, µM": 37}
{"compound": "O=[N+]([O-])c1ccc(S(=O)(=O)NCc2ccc(Cl)cc2)c([N+](=O)[O-])c1", "SO2 yield, 5 min, µM": 77}
{"compound": "CN(c1ccccc1)S(=O)(=O)c1ccc([N+](=O)[O-])cc1[N+](=O)[O-]", "SO2 yield, 5 min, µM": 89}
{"compound": "O=[N+]([O-])c1ccc(S(=O)(=O)Nc2cccc(F)c2)c([N+](=O)[O-])c1", "SO2 yield, 5 min, µM": 5}

IN: Can you look up the measured SO2 yield, 5 min of C[C@@H](NS(=O)(=O)c1ccc([N+](=O)[O-])cc1[N+](=O)[O-])c1ccccc1 for me?
OUT: 78

IN: Cool, now O=[N+]([O-])c1ccc(S(=O)(=O)NCc2ccc(C(F)(F)F)cc2)c([N+](=O)[O-])c1
OUT: 79

---

- System: Mycobacterium tuberculosis H37Rv strain
- assay-method-text: Antimycobacterial activity assay (MIC, 7H11 agar)
- Assay type: cell-based
- run-parameters: Mycobacterium tuberculosis, H37RV, Table 3; Mtb H37Rv
assay-endpoint: MIC (µM)
Return type: number; implicit unit µM.

IN: Can you look up the measured MIC of CN1CCN(S(=O)(=O)c2ccc([N+](=O)[O-])cc2[N+](=O)[O-])CC1 [Compound 25] for me?
OUT: 38

IN: Cool, now COC(=O)C(C)NS(=O)(=O)c1ccc([N+](=O)[O-])cc1[N+](=O)[O-] (stereo not drawn) [Compound 21]
OUT: 18.7

IN: Cool, now CN(Cc1ccccc1)S(=O)(=O)c1ccc([N+](=O)[O-])cc1[N+](=O)[O-] [Compound 15]
OUT: 1.1
